All values here come from PubChem BioAssay (EPA / NIEHS).

Target: Estrogen receptor (Homo sapiens)
Assay: CCTE_Deisenroth_AIME_384WELL_LUC_Shift: CCTE's 384-well Estrogen Receptor Transactivation Assay with AIME metabolic competence data shift (ERTA luciferase; difference in metabolism positive and negative), Deisenroth Lab (AID 2284041);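 further: shift is response with S9 minus without S9 so positive means metabolism raised ER signal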
Experimental: CCTE_Deisenroth_AIME_384WELL (AIME metabolism assay) is a cell-based, single-readout assay that uses VM7Luc4E2, a human mammary gland/breast cell line, with measurements taken at 24 hour after chemical dosing in a 384-well plate.CCTE_Deisenroth_AIME_384WELL_LUC_Shift is one of two analysis components calculated from the CCTE_Deisenroth_AIME_384WELL assay. […] Standard curve fit analysis identfiied chemicals where the calculated shift was greater than the shift-derived baseline cutoff. […]
Calls of active or inactive are those of the source. How the source made its calls: active means hit-call score of the fitted dose curve at least 0.9, where 1 is the maximum; inactive means score below 0.9.
Classes used: class 1 (active), class 0 (inactive)

In [3]: df
Out[3]:
                         structure_as_smiles  classification
 0       O=C(N[C@H]1CN2CCC1CC2)c1cc2ccoc2cn1         class 0
 1  Cc1cc2c3c(c1)C(c1ccccc1)=N[C@@H](NC(=O)c1ccncc1)C(=O)N3CC2         class 0
 2  C[C@]12CCC(=O)C=C1CC[C@@H]1[C@@H]2CC[C@@]2(C)[C@H]1CC[C@]2(C)O         class 1
 3  O=S(=O)(O)C(F)(F)C(F)(F)C(F)(F)C(F)(F)C(F)(F)C(F)(F)F         class 0
 4                              CCCN(CCC)N=O         class 0
 5                   Cc1cccc([N+](=O)[O-])c1         class 0
 6                                 Sc1ccccc1         class 0
 7                             COS(=O)(=O)OC         class 0
 8               Cc1cc(-c2ccc(N)c(C)c2)ccc1N         class 0
 9                   Clc1ccc(C(Cl)(Cl)Cl)cc1         class 0
10  CCC(=O)O[C@H]1CC[C@H]2[C@@H]3CCC4=CC(=O)CC[C@]4(C)[C@H]3CC[C@]12C         class 0
11                       C=CC(=O)NCNC(=O)C=C         class 0
12  ClC1=C(Cl)[C@]2(Cl)[C@@H]3[C@H]4C[C@H]([C@@H]5O[C@H]45)[C@@H]3[C@@]1(Cl)C2(Cl)Cl         class 1

====

System: guinea pig Leukotriene B4 Receptor (LTB4), gene 100379538
Experiment: NVS_GPCR_gLTB4: NovaScreen (NVS) G Protein-Coupled Receptor Assay for guinea pig Leukotriene B4 Receptor (LTB4) (AID 2283247)
Results filed as inconclusive are left out. Calls of active or inactive are those of the source. The calls were made as follows: active = hit-call score of the fitted dose curve at least 0.9, where 1 is the maximum; inconclusive = response in the unintended direction; inactive = score below 0.9.
Test Readout: AC50

                        structure_as_smiles  test_readout            result
0  O=S(=O)(O)C(F)(F)C(F)(F)C(F)(F)C(F)(F)C(F)(F)C(F)(F)F          AC50  10.8 µM (active)
1            CCC(C)(c1ccc(O)cc1)c1ccc(O)cc1          AC50  6.38 µM (active)
2  O=C(O)C(F)(F)C(F)(F)C(F)(F)C(F)(F)C(F)(F)C(F)(F)C(F)(F)C(F)(F)C(F)(F)F          AC50  11.6 µM (active)
3  O=C(O)C(F)(F)C(F)(F)C(F)(F)C(F)(F)C(F)(F)C(F)(F)C(F)(F)C(F)(F)F          AC50    25 µM (active)
